- Measured On: DRB1*0301 (DR3) (Homo sapiens, UniProt P01903+P01911, A100K/A102G/A103R/A169T/F55Y/I96L/K41T/L162R/M171V/P40S/Q125H/Q178H/Q39Y/R42S/S66N/T106N/T262R/W38E/Y61H)
- Format: binding
Assignment: determine reported Relative binding affinity of peptide to HLA-DR molecules, DR3 for the given sequences.
Reply with the value as a number alone.

Incoming: Please report the recorded Relative binding affinity of peptide to HLA-DR molecules, DR3 for `HQSIGSTLYNKIYLYENMNI` .
Outgoing: 1

Incoming: Which Relative binding affinity of peptide to HLA-DR molecules, DR3 reading was recorded for the sequence `VENTEKALNVYYEIGKILSR` ?
Outgoing: 418

Incoming: Find the recorded Relative binding affinity of peptide to HLA-DR molecules, DR3 belonging to `KIYLYENMNINNLTATLGAD` and report it.
Outgoing: 1

Incoming: Recorded Relative binding affinity of peptide to HLA-DR molecules, DR3 for `QHRDVLQLYAPEAFNYMDKF` , please?
Outgoing: 3

Incoming: Field request: Relative binding affinity of peptide to HLA-DR molecules, DR3 | item: `QNSNEVQEVFAKAFAYYIEP`
Outgoing: 173

Incoming: Please report the recorded Relative binding affinity of peptide to HLA-DR molecules, DR3 for `PESRSILLHGPSKGVELRND` .
Outgoing: 354

Incoming: For the sequence shown here, `KELLNRIQVDSSNPLSEKEK` , give the reported Relative binding affinity of peptide to HLA-DR molecules, DR3.
Outgoing: 1

Incoming: Which measured Relative binding affinity of peptide to HLA-DR molecules, DR3 value corresponds to `EIMKHIVKIEVKGEEAVKKE` ?
Outgoing: 50

Incoming: # get_value(readout='Relative binding affinity of peptide to HLA-DR molecules, DR3', item= `DTGGLIDSPSINLDVRKQYK` )
Outgoing: 0.3

Incoming: # lookup: Relative binding affinity of peptide to HLA-DR molecules, DR3 of `EQYTHQDEIYEQVHSKGLYV`
Outgoing: 245

Incoming: Form field: reported Relative binding affinity of peptide to HLA-DR molecules, DR3 of `KLITFNVHNRYASNIVESAY`
Outgoing: 0.4

Incoming: Quick one: Relative binding affinity of peptide to HLA-DR molecules, DR3 of `EAQLNINQEWNKALGLPKYT` ?
Outgoing: 173

Incoming: // lookup Relative binding affinity of peptide to HLA-DR molecules, DR3 for `NKALGLPKYTKLITFNVHNR`
Outgoing: 250

Incoming: Given `LENGKLILQRNIGLEIKDVQI` , state its recorded Relative binding affinity of peptide to HLA-DR molecules, DR3.
Outgoing: 4

Incoming: Any idea what Relative binding affinity of peptide to HLA-DR molecules, DR3 was measured for `AVDDYAGYLLDKNQSDLVTN` ?
Outgoing: 42

Incoming: Report Relative binding affinity of peptide to HLA-DR molecules, DR3 for `YLVDGNGRFVFTDITLPNIA` please.
Outgoing: 0.3

Incoming: Request the reported Relative binding affinity of peptide to HLA-DR molecules, DR3 associated with `EYIRIDAKVVPKSKIDTKIQ`
Outgoing: 1

Incoming: Returns the measured Relative binding affinity of peptide to HLA-DR molecules, DR3 for the input sequence. Input: `YYEIGKILSRDILSKINQPY`
Outgoing: 3

Incoming: // lookup Relative binding affinity of peptide to HLA-DR molecules, DR3 for `AKAFAYYIEPQHRDVLQLYA`
Outgoing: 39

Incoming: Report Relative binding affinity of peptide to HLA-DR molecules, DR3 for `QSDLIKKVTNYLVDGNGRFV` please.
Outgoing: 26

Incoming: Given `IGLEIKDVQIIKQSEKEYIRIDAKVVP` , state its recorded Relative binding affinity of peptide to HLA-DR molecules, DR3.
Outgoing: 2

Incoming: Query (sequence): `VLVIQSSEDYVENTEKALNV` ; field requested: Relative binding affinity of peptide to HLA-DR molecules, DR3
Outgoing: 82

Incoming: Reported Relative binding affinity of peptide to HLA-DR molecules, DR3 for `SKKFIDIFKEEGSNLTSYGR` : what is it?
Outgoing: 474

These measurements were taken from patent US20170058005A1.
